# ASSAY_TARGET: Neurogenic locus notch homolog protein 3 (Homo sapiens)
# PROCEDURE_DETAILS: NOTCH3 binders on small-molecule microarray, primary screen, biochemical, 635/667 nm fluorescence (AID 1096)
# CONDITION_NOTES: NOTCH3 binding, 635 nm fluorescence, higher = more signal
QUANTITY_KIND: composite z-score
Returns: the value as a bare number; no unit string appended.

MOLECULE	MEASURED_NUMBER
COC(=O)CC=C[C@@H](C)[C@@H](C=NOC(C)CN1CCCCc2nc(C)c(C)cc21)OC (stereo not given in full)	0.234
COc1ccc(COC(=O)NN=C2C[C@@H](O)[C@@H](O)[C@@H]3[C@@H]4C(=O)N(C5CCCCC5)C(=O)[C@@H]4CC[C@@H]23)cc1	-0.218
COC(=O)CC=C[C@@H](C)[C@@H](C=NOC[C@@H](O)COCc1ccco1)OC	-0.456
O=C1[C@H]2[C@H]3[C@H](O)[C@H](O)CC(=NOCc4ccccc4)[C@@H]3CC[C@H]2C(=O)N1c1cccc(Oc2ccccc2)c1	0.64
CC(=O)OC[C@H]1O[C@H](CC=NOC(C)CN2CCCCc3nc(C)c(C)cc32)C=C[C@@H]1OC(C)=O (stereo not given in full)	1.01
CCOC(=O)[C@H](CC(C)C)NC(=O)CCC1CC(OC(=O)NCc2ccc3c(c2)OCO3)CC2(CCCC(COC(=O)NCCOc3ccccc3)O2)O1 (stereo not given in full)	1.11
O=C1[C@H]2[C@H]3[C@H](O)[C@H](O)CC(=NO[C@@H]4O[C@H](CO)[C@@H](O)[C@H](O)[C@H]4O)[C@@H]3CC[C@H]2C(=O)N1C[C@@H]1CCCO1	0.979
COC(=O)[C@H](C)NC(=O)CCC1CC(OC(=O)NCCc2ccc(F)cc2)CC2(CCCC(COC(=O)NCc3ccccc3)O2)O1 (stereo not given in full)	1.1

Query string: Requested read-out: composite z-score. Entry: COC(=O)[C@H](C)NC(=O)CCC1CC(OC(=O)NCc2cccc3ccccc23)CC2(CCCC(COC(=O)NCCc3ccccc3OC)O2)O1 (stereo not given in full)
Result string: 0.817

Query string: Requested read-out: composite z-score. Entry: CC(=O)OC[C@H]1O[C@@H](ON=C2[C@H]3CCn4c(=O)n(-c5ccccc5)c(=O)n4[C@H]3[C@H](O)[C@@H]3O[C@H]23)[C@H](OC(C)=O)[C@@H](OC(C)=O)[C@@H]1OC(C)=O
Result string: 0.785

Query string: Requested read-out: composite z-score. Entry: CC(=O)OC[C@H]1O[C@H](CCON=C(C)CCN2CCCc3nc(C)c(C)cc32)C=C[C@@H]1OC(C)=O
Result string: 1.04

Query string: Requested read-out: composite z-score. Entry: CC=CC1=C(CO)[C@H](O)[C@H]2O[C@H]2[C@@H]1O
Result string: 0.429

Query string: Requested read-out: composite z-score. Entry: CC(C)CON=C1C[C@@H](O)[C@@H](O)[C@@H]2[C@@H]3C(=O)N([C@@H](C)c4ccccc4)C(=O)[C@@H]3CC[C@@H]12
Result string: 0.114

Query string: Requested read-out: composite z-score. Entry: CO[C@H]1COC(=O)CCC[C@H](C)[C@H](OC)COC(=O)CC=C[C@@H]1C
Result string: -0.398

Query string: Requested read-out: composite z-score. Entry: O=C1CCCC=C1C(O)C1CCCCC1 (stereo not given)
Result string: 0.0627

---

# PROCEDURE_DETAILS: small-molecule microarray binders of probe aEGFR, primary screen, biochemical, biotinylated probe, 635/667 nm fluorescence (AID 1097);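 note: probe is a biotinylated anti-EGFR antibody binding compounds printed on slides; score combines fluorescence near 667 nm and signal to noise of each spot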
# CONDITION_NOTES: higher = more signal
Label rule, in plain words: composite z-score of -0.1 and up is Fulfilled, under -0.1 is Not fulfilled.

Solved entries:
>>> print(df.to_string())
                                        smi          group
0  COc1ccc(COC(=O)NN=C2C[C@@H](O)[C@@H](O)[C@@H]3[C@@H]4C(=O)N(C[C@@H]5CCCO5)C(=O)[C@@H]4CC[C@H]23)cc1  Not fulfilled
1             Cc1ccc(C(C)C)n1C(=O)OC(C)(C)C      Fulfilled

Here's the next entry for you.
Query string: Is it the case that C[C@H]1C=CCC(=O)OC[C@H](C)C(=O)N2CCC[C@H]2C(=O)OC1 has composite z-score reaching or exceeding -0.1?
Result string: Fulfilled

---

# PROCEDURE_DETAILS: E. coli acrAB mutant growth effects, primary screen, E. coli filamentation inducers, strain DRC39, OD650, 48 h (AID 1179);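 note: screen aims at cell division blockers that make cells filament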
# CONDITION_NOTES: E. coli DRC39 delta-acrAB growth, higher = more signal, called active from +8 up or from −8 down
# z-score listing for each entry below
Returns: the value as a bare number; no unit string appended.

Guide cases for z-score, answers given:
COMPOUND	z-score
CCOC(=O)CCN1C(=O)[C@H]2[C@@H]3C(=CC[C@H]2C1=O)C(=O)[C@H]1O[C@H]1[C@H]3O	0.322
CC(=O)OC[C@H]1O[C@H](CC=NO[C@@H](C)c2cn([C@H](CO)Cc3ccccc3)nn2)C=C[C@@H]1OC(C)=O	-1.36
CCOC(=O)CCN1C(=O)[C@H]2[C@H]3[C@H](O)[C@H](O)CC(=NNC(=O)OCc4ccc(OC)cc4)[C@H]3CC[C@H]2C1=O	-0.652
CC(C)(C)N1C(=O)[C@H]2[C@H]3[C@H](O)[C@H](O)CC(=NOC[C@@H](O)COCc4ccco4)[C@@H]3CC[C@H]2C1=O	-0.253
CC(=O)OC[C@H]1O[C@@H](ON=C(C)C)[C@H](OC(C)=O)[C@@H](OC(C)=O)[C@@H]1OC(C)=O	-2.31
CC(=O)OC[C@H]1O[C@@H](ON=C2[C@H]3CCn4c(=O)n(-c5ccccc5)c(=O)n4[C@H]3[C@H](O)[C@@H]3O[C@H]23)[C@H](OC(C)=O)[C@@H](OC(C)=O)[C@@H]1OC(C)=O	0.381
C[C@H]1CC[C@H]2C(=O)N[C@H](Cc3ccccc3)C(=O)N2[C@@H]1c1ccccc1	0.295
CC(C)[C@@H](OCc1ccccc1)[C@H](C)CON=C1[C@H]2CCn3c(=O)n(-c4ccccc4)c(=O)n3[C@H]2[C@H](O)[C@@H]2O[C@H]12	0.876

Turning to the following compound.
Query string: Requested read-out: z-score. Entry: CC(C)=CCCC(C)=CCON=C1C[C@@H](O)[C@@H](O)[C@@H]2[C@@H]3C(=O)N(c4cccc(Oc5ccccc5)c4)C(=O)[C@@H]3CC[C@H]12
Result string: 0.15

---

# PROCEDURE_DETAILS: splicing luciferase reporter signal modulators, primary screen, spliceosome inhibition project, cell-based, HEK293, splice +/- reporter (AID 1101);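 note: HEK293 cells carrying a splicing-competent luciferase reporter gene; test concentration not given here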
# CONDITION_NOTES: luminescence, 24 h, higher = more signal, called active from +8 up or from −8 down
Label rule, in plain words: z-score of 0.5 and up is 1, under 0.5 is 0.

Solved entries:
In [3]: df
Out[3]:
                                   compound  group
0  CC(C)[C@@H](OCc1ccccc1)[C@H](C)CON=C1[C@H]2CCn3c(=O)n(-c4ccccc4)c(=O)n3[C@H]2[C@H](O)[C@@H]2O[C@H]12      1
1  CC(C)=NOC(C)CN1CCCc2nc(C)c(C)cc21 (stereo not drawn)      0
2  C[C@]12CCC3c4ccc(OCC5CO5)cc4CCC3C1CC[C@@H]2O (stereo partly drawn)      0

Query string: Is it the case that CO[C@@H]1COC(=O)[C@@H]2CCCN2C(=O)[C@@H](C)COC(=O)CCC[C@H]1C has z-score reaching or exceeding 0.5?
Result string: 0

Query string: Is it the case that CON=C1c2cc(OC)ccc2O[C@H](c2cccc(OC)c2)[C@H]1O has z-score reaching or exceeding 0.5?
Result string: 0

Query string: Is it the case that CON=C(C)CCC(=O)OC[C@H]1O[C@H](C#Cc2ccccc2)C=C[C@@H]1Oc1ccc(C)cc1 has z-score reaching or exceeding 0.5?
Result string: 1

Query string: Is it the case that CCN1C(=O)[C@H]2[C@H]3[C@H](O)[C@H](O)CC(=NOC[C@@H](O)[C@H]4O[C@@H]5OC(C)(C)O[C@@H]5[C@H]4O)[C@@H]3CC[C@H]2C1=O has z-score reaching or exceeding 0.5?
Result string: 0

---

# PROCEDURE_DETAILS: binders of probe aHhip on microarray, primary screen, stem cell growth factor project, biochemical, small-molecule microarray, fluorescence 635/667 (AID 1087);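 note: score merges spot fluorescence at 667nm with spot signal to noise ratio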
# CONDITION_NOTES: higher = more signal
QUANTITY_KIND: composite z-score
Returns: the value as a bare number; no unit string appended.

In [3]: df
Out[3]:
                                   molecule  measured_number
0             Cc1ccc(C(C)C)n1C(=O)OC(C)(C)C           0.0749
1  COC(=O)[C@H](C)NC(=O)CCC1CC(OC(=O)NCCc2ccc(F)cc2)CC2(CCCC(COC(=O)NCC3CCCCC3)O2)O1 (stereo partly drawn)           -0.143
2  CC(C)CON=C1C[C@@H](O)[C@@H](O)[C@@H]2[C@@H]3C(=O)N(Cc4ccc5c(c4)OCO5)C(=O)[C@@H]3CC[C@@H]12           0.0659
3  CC(CCN1CCCc2nc(C)c(C)cc21)=NOC[C@@H](O)COCc1ccco1             3.19
4  CC(C)(C)N1C(=O)[C@H]2[C@H]3[C@H](O)[C@H](O)CC(=NNC(=O)OCc4ccccc4)[C@H]3CC[C@H]2C1=O           -0.169

Query string: Requested read-out: composite z-score. Entry: COC(=O)[C@H](C)NC(=O)CC=C[C@@H](C)[C@@H]1C=C[C@H](O)[C@@H](CO)O1
Result string: -0.0645

Query string: Requested read-out: composite z-score. Entry: C=CC[C@@H]1C=C[C@H](ON=C2C[C@@H](O)[C@@H](O)[C@@H]3[C@@H]4C(=O)N(CC)C(=O)[C@@H]4CC[C@@H]23)[C@@H](CO)O1
Result string: -0.0994

Query string: Requested read-out: composite z-score. Entry: COC(=O)C1=C(C)N(Cc2ccccc2)C2=C3C(=O)OCC[C@@H]3[C@@](O)(C(=O)OC)C(=O)N2[C@@H]1c1ccccc1
Result string: 0.0139

Just for reference, PubChem BioAssay is where these values come from.
